Cited source for all entries: patent US12187807B2

# EXPERIMENTAL SYSTEM: T1, biotinylated peptide representing ECL2 of C5aR1 (Homo sapiens, UniProt P21730)
# T1 construct: cyclic ECL2 peptide spanning from residues R175 to C188
# PROTOCOL NOTES: Epitope mapping by biolayer interferometry, ECL2 peptide
# Format: binding
# Design: key: “+” indicates binding to the listed peptide; “−” indicates lack of binding to the listed peptide
# RUN CONDITIONS: biolayer interferometry, 10 μg/mL of antibody, biotinylated peptide on streptavidin biosensor
QUANTITY MEASURED: Binding to Cyclic ECL2 peptide

clone 329: anti-C5aR1 Site II antibody; VH SEQ ID NO: 492, VL SEQ ID NO: 552 (antibody, V domains shown) VH: QVQLQQSGAELTKPGASVKLSCKASGYTFTNYWMHWVKQRPGQGLEWIGYLNPSSGYTKYNQKFKDKATLTADKSSSTAYMQLNSLTYEDSAVYYCTRSGGDNYGNPYYFDRWGQGTTVTVSS VL: DVVMTQTPLSLTVSLGDQASISCRSSQSLVHSNGNTYLHWYLQKPGQSPKFLIYKVSNRFSGVPDRFSGSGSGTDFRLKISRVEAEDLGVYFCSQSTLVPLTFGAGTKLEIK : +
clone 336v2-1: exemplary anti-C5aR1 antibody, Table 1C (antibody, V domains shown) VH: QVQLKQSGPGLVQSSQSLSITCTVSGFSLISYGVHWVRQSPGKGLEWLGVIWSGGSTDYNAAFKSRLSITKDNSKSQVFFKMNSLQADDTAIYYCAKNSQLGNAMDYWGQGTTVTVSS VL: DIVMSQSPSSLAVSAGEKVTMSCKSSQSLLSSRTRKNYLAWYQQKPGQSPKLLIYWASTRESGVPDRFTGSGSGTDFTLTISSVQAEDLALYFCNQSYDLLTFGAGTKLEIK : +
clone 66: anti-C5aR1 Site I antibody; VH SEQ ID NO: 483, VL SEQ ID NO: 543 (antibody, V domains shown) VH: QVQLQQSDAELVKPGASVKISCKASGYTFIDHAIHWVKQRPEQGLEWIGYISPGNGEIKYNEKFKAKATLTADKSSSAAYMQLNSLTSADSAVYFCKRALFYYTGKYQPMDYWGQGTTVTDSS VL: DIVMTQSQKFMSTTAGDRVSITCKASQNVGSAVVWYQQKPGRSPKLLIYSSSIRYTGVPDRFTGSGSGTDFTLTINSVQSEDLADYFCQQYNSFPLTFGAGTKLEIK : −
